Source of measurements: patent US20250084084A1

// values below are reported Ki
Biological target: α-melanocyte-stimulating hormone receptor (hMC4R) (Homo sapiens (Human))
Sequence (P32245 whole entry): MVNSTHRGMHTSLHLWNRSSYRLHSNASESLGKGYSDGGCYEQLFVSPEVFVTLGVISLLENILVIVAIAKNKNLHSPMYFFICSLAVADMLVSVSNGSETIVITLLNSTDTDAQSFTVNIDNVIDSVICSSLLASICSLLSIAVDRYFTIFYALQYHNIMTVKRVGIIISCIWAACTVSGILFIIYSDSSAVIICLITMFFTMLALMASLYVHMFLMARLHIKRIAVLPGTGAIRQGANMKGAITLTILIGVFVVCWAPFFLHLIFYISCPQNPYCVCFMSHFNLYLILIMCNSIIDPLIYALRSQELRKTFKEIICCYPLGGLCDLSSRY
Assay: In vitro binding affinity assay using hMC4R (radioligand competition binding, [125I]-(Nle4, D-Phe7)-α-MSH)
Conditions: geometric mean, read-out: Ki (nM) geometric

[
  {
    "MOLECULE": "COc1cc([C@@H](C)C(=O)N2CC[C@@]3(CCc4cc(-c5nc(C)n(C(F)F)n5)c(C)nc4N3)C2)c(F)cn1",
    "READOUT_UNITS": "nM",
    "Ki": 0.41
  },
  {
    "MOLECULE": "COc1cc([C@@H](C)C(=O)N2CC[C@@]3(CCc4cc(-c5cnsc5)c(C)nc4N3)C2)c(F)cn1",
    "READOUT_UNITS": "nM",
    "Ki": 3.9
  },
  {
    "MOLECULE": "COc1cc(C(C)(F)C(=O)N2CC[C@@]3(CCc4cc(-c5ncccn5)c(C)nc4N3)C2)c(F)cn1 (single isomer, unassigned)",
    "READOUT_UNITS": "nM",
    "Ki": 12
  },
  {
    "MOLECULE": "COc1cc([C@@H](C)C(=O)N2CC[C@@]3(CCc4cc(-c5nccs5)c(C)nc4N3)C2)c(F)cn1",
    "READOUT_UNITS": "nM",
    "Ki": 5.4
  },
  {
    "MOLECULE": "COc1cc([C@@H](C)C(=O)N2CC[C@@]3(CCc4cc(-c5ccc(-c6noc(C)n6)cc5)c(C)nc4N3)C2)c(F)cn1",
    "READOUT_UNITS": "nM",
    "Ki": 45
  },
  {
    "MOLECULE": "COc1cc([C@@H](C)C(=O)N2CC[C@@]3(CCc4cc(-c5nc(C)cc(C)n5)c(C)nc4N3)C2)c(F)cn1",
    "READOUT_UNITS": "nM",
    "Ki": 6.3
  }
]

----------
Target: UniProtKB P32245
Assay: In vitro binding affinity assay using hMC4R (radioligand competition binding, [125I]-(Nle4, D-Phe7)-α-MSH)
Conditions: geometric mean, read-out: Ki (nM) geometric
OUTCOME_MEASURE: log10 Ki (log10 of the value in nM)

[
  {
    "MOLECULE": "COc1cc([C@@H](C)C(=O)N2CC[C@@]3(CCc4cc(-c5ncc(C(F)(F)F)s5)c(C)nc4N3)C2)c(F)cn1",
    "MEAS_VALUE": 2.04
  },
  {
    "MOLECULE": "COc1cc([C@@H](C)C(=O)N2CC[C@@]3(CCc4cc(-c5nc(C(C)C)ns5)c(C)nc4N3)C2)c(F)cn1",
    "MEAS_VALUE": 0.91
  },
  {
    "MOLECULE": "COc1cc([C@@H](C)C(=O)N2CC[C@@]3(CCc4cc(-c5cc(C)ccn5)c(C)nc4N3)C2)c(F)cn1",
    "MEAS_VALUE": 0.91
  },
  {
    "MOLECULE": "COc1cc([C@@H](C)C(=O)N2CC[C@@]3(CCc4cc(-c5ncc(C(F)(F)F)cn5)c(C)nc4N3)C2)c(F)cn1",
    "MEAS_VALUE": 0.94
  },
  {
    "MOLECULE": "COc1cc([C@@H](C)C(=O)N2CC[C@@]3(CCc4cc(-c5ncc(F)cn5)c(C)nc4N3)C2)c(F)cn1",
    "MEAS_VALUE": 0.08
  },
  {
    "MOLECULE": "COc1cc([C@@H](C)C(=O)N2CC[C@@]3(CCc4cc(-c5nc(C(F)F)n(C6CC6)n5)c(C)nc4N3)C2)c(F)cn1",
    "MEAS_VALUE": 0.11
  },
  {
    "MOLECULE": "COc1cc([C@@H](C)C(=O)N2CC[C@@]3(CCc4cc(-c5cncc(C)n5)c(C)nc4N3)C2)c(F)cn1",
    "MEAS_VALUE": 0.77
  },
  {
    "MOLECULE": "COc1cc([C@@H](C)C(=O)N2CC[C@@]3(CCc4cc(-c5ccc(C(F)F)nc5)c(C)nc4N3)C2)c(F)cn1",
    "MEAS_VALUE": 1.41
  },
  {
    "MOLECULE": "COc1cc([C@@H](C)C(=O)N2CC[C@@]3(CCc4cc(-c5nccc(C(F)F)n5)c(C)nc4N3)C2)c(F)cn1",
    "MEAS_VALUE": -0.09
  },
  {
    "MOLECULE": "COc1cc([C@@H](C)C(=O)N2CC[C@@]3(CCc4cc(-c5nc(C(F)F)n(C)n5)c(C)nc4N3)C2)nc(C)n1 (single isomer, unassigned)",
    "MEAS_VALUE": -0.66
  },
  {
    "MOLECULE": "COc1cc([C@@H](C)C(=O)N2CC[C@@]3(CCc4cc(-c5cccc(C(F)F)n5)c(C)nc4N3)C2)c(F)cn1",
    "MEAS_VALUE": 0.38
  },
  {
    "MOLECULE": "COc1cc([C@@H](C)C(=O)N2CC[C@@]3(CCc4cc(-c5cccc(OC(F)F)n5)c(C)nc4N3)C2)c(F)cn1",
    "MEAS_VALUE": 0.40
  }
]
